Where these numbers come from: patent US20040253247A1

Target: rabbit albumin (rabbit, UniProt P49065 25-608)
Sequence (P49065 25-608 limits assumed): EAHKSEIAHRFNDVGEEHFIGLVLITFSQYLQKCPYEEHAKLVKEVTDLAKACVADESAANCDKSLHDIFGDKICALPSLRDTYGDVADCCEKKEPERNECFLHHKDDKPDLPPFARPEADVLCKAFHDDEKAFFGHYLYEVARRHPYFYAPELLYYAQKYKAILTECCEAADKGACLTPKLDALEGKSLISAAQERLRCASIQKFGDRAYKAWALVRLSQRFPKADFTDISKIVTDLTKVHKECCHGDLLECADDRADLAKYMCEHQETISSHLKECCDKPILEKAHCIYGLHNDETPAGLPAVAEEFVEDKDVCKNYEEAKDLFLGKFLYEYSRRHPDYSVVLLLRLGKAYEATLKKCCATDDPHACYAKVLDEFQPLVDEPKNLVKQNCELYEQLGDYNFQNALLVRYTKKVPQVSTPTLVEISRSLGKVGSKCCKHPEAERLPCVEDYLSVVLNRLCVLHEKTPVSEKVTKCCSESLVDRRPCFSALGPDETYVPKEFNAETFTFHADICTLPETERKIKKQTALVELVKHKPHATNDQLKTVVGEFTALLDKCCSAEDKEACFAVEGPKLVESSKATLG
Experiment: phage ELISA
Where no end group is shown, it is not given here.
readout kind: binding result

DTCVDLVRLGLECWG (phage clone selected on rat SA) [RD] : no binding
CGCVDVSDWDCWSECLWSHGA (phage clone selected on rat SA) [RE] : no binding
EMCYFPGICWM (not fully specified (bridges); printed as Glu-Met-Cys-Tyr-Phe-Pro-Gly-Ile-Cys-Trp-Met; cysteine pairing not given here, phage clone selected on human SA) [HC] : no binding
